# experimental system: ΔF508-CFTR (Homo sapiens, UniProt P13569, DEL508-508)
# Construct: expressed in transfected cells
# Sequence (P13569 with tags, fused parts or gaps DEL508-508): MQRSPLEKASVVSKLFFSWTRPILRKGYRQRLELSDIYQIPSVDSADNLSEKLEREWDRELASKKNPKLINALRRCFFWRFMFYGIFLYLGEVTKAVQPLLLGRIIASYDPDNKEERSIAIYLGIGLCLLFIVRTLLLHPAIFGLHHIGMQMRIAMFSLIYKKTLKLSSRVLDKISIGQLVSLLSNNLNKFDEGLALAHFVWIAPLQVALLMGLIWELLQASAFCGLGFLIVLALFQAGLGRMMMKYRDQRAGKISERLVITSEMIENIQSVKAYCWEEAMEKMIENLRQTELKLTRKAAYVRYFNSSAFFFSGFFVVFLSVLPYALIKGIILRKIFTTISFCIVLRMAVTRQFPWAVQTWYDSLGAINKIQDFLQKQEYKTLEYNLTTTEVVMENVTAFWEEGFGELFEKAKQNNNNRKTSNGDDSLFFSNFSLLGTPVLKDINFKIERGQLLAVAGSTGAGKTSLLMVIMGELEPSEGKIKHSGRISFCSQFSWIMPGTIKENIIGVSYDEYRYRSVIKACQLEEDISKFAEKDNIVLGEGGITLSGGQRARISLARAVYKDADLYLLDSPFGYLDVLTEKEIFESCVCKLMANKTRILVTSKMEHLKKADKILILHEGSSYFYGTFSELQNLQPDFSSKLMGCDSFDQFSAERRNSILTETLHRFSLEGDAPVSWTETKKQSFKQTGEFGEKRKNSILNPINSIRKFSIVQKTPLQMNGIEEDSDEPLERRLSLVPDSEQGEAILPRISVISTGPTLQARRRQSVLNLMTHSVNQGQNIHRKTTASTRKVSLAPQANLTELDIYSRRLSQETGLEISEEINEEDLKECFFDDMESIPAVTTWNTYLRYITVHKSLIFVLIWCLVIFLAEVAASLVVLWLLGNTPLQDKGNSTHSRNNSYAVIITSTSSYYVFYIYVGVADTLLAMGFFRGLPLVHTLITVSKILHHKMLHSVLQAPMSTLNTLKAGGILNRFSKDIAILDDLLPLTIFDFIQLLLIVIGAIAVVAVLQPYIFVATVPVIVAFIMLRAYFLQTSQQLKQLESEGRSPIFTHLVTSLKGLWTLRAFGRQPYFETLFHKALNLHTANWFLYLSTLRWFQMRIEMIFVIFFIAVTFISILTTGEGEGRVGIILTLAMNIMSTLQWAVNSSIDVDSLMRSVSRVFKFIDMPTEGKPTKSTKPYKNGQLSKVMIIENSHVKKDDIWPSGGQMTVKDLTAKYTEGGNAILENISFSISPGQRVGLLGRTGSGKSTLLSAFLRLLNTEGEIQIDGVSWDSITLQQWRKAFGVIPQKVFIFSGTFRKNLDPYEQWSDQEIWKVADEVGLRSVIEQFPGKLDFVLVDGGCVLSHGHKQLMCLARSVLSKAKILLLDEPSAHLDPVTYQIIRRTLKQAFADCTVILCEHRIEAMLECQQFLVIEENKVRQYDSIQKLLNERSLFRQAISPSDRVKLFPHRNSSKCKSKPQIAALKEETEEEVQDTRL
# test: Membrane potential optical (FRET/VIPR) assay, identification of potentiator compounds
# Type: cell-based
# assay context: Table 3; relative efficacy; assay not given
# Description: […]
measured metric: % Activity

>  <compound>
CC(C)(C)c1ccc(NC(=O)c2c[nH]c3ccccc3c2=O)cc1C#N [Compound 13]

>  <reported value>
++ (between 25% to 100%)

$$$$
>  <compound>
CCOc1ccc(-c2ccccc2NC(=O)c2c[nH]c3ccccc3c2=O)cc1 [Compound 348]

>  <reported value>
++ (between 25% to 100%)

$$$$
>  <compound>
CC(C)(C)c1ccc(N)cc1NC(=O)c1c[nH]c2ccccc2c1=O [Compound 260]

>  <reported value>
++ (between 25% to 100%)

$$$$
>  <compound>
CC(=O)Nc1cccc(NC(=O)c2c[nH]c3ccccc3c2=O)c1 [Compound 419]

>  <reported value>
+ (<25%)

$$$$
>  <compound>
O=C(Nc1ccccc1-c1cccc(C(F)(F)F)c1)c1c[nH]c2ccccc2c1=O [Compound 278]

>  <reported value>
++ (between 25% to 100%)

$$$$
>  <compound>
O=C(Nc1cc(O)c2ccccc2c1)c1c[nH]c2ccccc2c1=O [Compound 551]

>  <reported value>
++ (between 25% to 100%)

$$$$
>  <compound>
COc1ccc(NC(=O)c2c[nH]c3ccccc3c2=O)cc1 [Compound 439]

>  <reported value>
++ (between 25% to 100%)

$$$$
>  <compound>
O=C(Nc1ccc(N2CCC[C@H]2CO)cc1C(F)(F)F)c1c[nH]c2ccccc2c1=O [Compound 634]

>  <reported value>
++ (between 25% to 100%)

$$$$
>  <compound>
COc1ccc(OC)c(-c2ccccc2NC(=O)c2c[nH]c3ccccc3c2=O)c1 [Compound 361]

>  <reported value>
+++ (>100%)

$$$$
>  <compound>
Cc1cccc2c(=O)c(C(=O)Nc3cc(O)c(C(C)(C)C)cc3F)c[nH]c12 [Compound 625]

>  <reported value>
+ (<25%)

$$$$
>  <compound>
N#Cc1ccc(NC(=O)c2c[nH]c3ccccc3c2=O)cc1 [Compound 194]

>  <reported value>
+ (<25%)

$$$$
>  <compound>
O=C(Nc1cccc(S(=O)(=O)N2CCOCC2)c1)c1c[nH]c2ccccc2c1=O [Compound 185]

>  <reported value>
+ (<25%)

$$$$
>  <compound>
CC(C)(C)c1cc2cc[nH]c2cc1NC(=O)c1c[nH]c2ccccc2c1=O [Compound 381]

>  <reported value>
++ (between 25% to 100%)

$$$$
>  <compound>
CC(C)n1cc(C(=O)Nc2ccccc2)c(=O)c2ccccc21 [Compound 29]

>  <reported value>
++ (between 25% to 100%)

$$$$
>  <compound>
CC(=O)Nc1ccc(C(C)(C)C)c(NC(=O)c2c[nH]c3ccccc3c2=O)c1 [Compound 316]

>  <reported value>
++ (between 25% to 100%)

$$$$
>  <compound>
CC(C)(C)c1cc(C(C)(C)C)c(NC(=O)c2c[nH]c3ccccc3c2=O)c(O)c1O [Compound 220]

>  <reported value>
++ (between 25% to 100%)

$$$$
>  <compound>
O=C(Nc1ccccc1-c1cccc(OC(F)(F)F)c1)c1c[nH]c2ccccc2c1=O [Compound 253]

>  <reported value>
++ (between 25% to 100%)

$$$$
>  <compound>
Cc1ccc(NC(=O)c2c[nH]c3ccccc3c2=O)cc1 [Compound 31]

>  <reported value>
++ (between 25% to 100%)

$$$$
>  <compound>
CN(Cc1ccccc1NC(=O)c1c[nH]c2ccccc2c1=O)C1CCCCC1 [Compound 354]

>  <reported value>
++ (between 25% to 100%)

$$$$
>  <compound>
CC(C)(C)OC(=O)N1CCc2c(cccc2NC(=O)c2c[nH]c3ccccc3c2=O)C1 [Compound 427]

>  <reported value>
++ (between 25% to 100%)

$$$$
>  <compound>
N#Cc1cc(N2CCCC2)ccc1NC(=O)c1c[nH]c2ccccc2c1=O [Compound 622]

>  <reported value>
++ (between 25% to 100%)

$$$$
>  <compound>
CC(C)(C)c1cc(F)c(NC(=O)c2c[nH]c3ccccc3c2=O)cc1O [Compound 143]

>  <reported value>
++ (between 25% to 100%)

$$$$
>  <compound>
CCOC(=O)NCC(C)(C)c1ccc(NC(=O)c2c[nH]c3ccccc3c2=O)cc1 [Compound 119]

>  <reported value>
++ (between 25% to 100%)

$$$$
>  <compound>
CC1(c2ccc(NC(=O)c3c[nH]c4cccc(O)c4c3=O)cc2O)CCCCC1 [Compound 606]

>  <reported value>
+ (<25%)

$$$$
>  <compound>
CCCCOc1ccccc1NC(=O)c1c[nH]c2ccccc2c1=O [Compound 177]

>  <reported value>
+++ (>100%)

$$$$
>  <compound>
CC(C)(C)c1c[nH]c2cc(NC(=O)c3c[nH]c4ccc(F)cc4c3=O)ccc12 [Compound 554]

>  <reported value>
++ (between 25% to 100%)

$$$$
>  <compound>
CC1CCN(c2ccc(NC(=O)c3c[nH]c4ccccc4c3=O)c(C(F)(F)F)c2)C1 (centres unmarked) [Compound 555]

>  <reported value>
++ (between 25% to 100%)

$$$$
>  <compound>
Cc1ccc(NC(=O)c2c[nH]c3ccccc3c2=O)nc1 [Compound 195]

>  <reported value>
+ (<25%)

$$$$
>  <compound>
Cc1ccc(-c2ccccc2NC(=O)c2c[nH]c3ccccc3c2=O)o1 [Compound 311]

>  <reported value>
++ (between 25% to 100%)

$$$$
>  <compound>
O=C(Nc1ccc2c(c1)CCCC2)c1c[nH]c2ccccc2c1=O [Compound 375]

>  <reported value>
++ (between 25% to 100%)

$$$$
>  <compound>
N#CCc1c[nH]c2cc(NC(=O)c3c[nH]c4ccccc4c3=O)ccc12 [Compound 96]

>  <reported value>
++ (between 25% to 100%)

$$$$
>  <compound>
CC(=O)N1CCc2ccc(NC(=O)c3c[nH]c4ccccc4c3=O)cc21 [Compound 233]

>  <reported value>
+ (<25%)

$$$$
>  <compound>
O=C(Nc1ccccc1-c1ccccc1F)c1c[nH]c2ccccc2c1=O [Compound 313]

>  <reported value>
++ (between 25% to 100%)

$$$$
>  <compound>
COC(=O)Nc1cc(NC(=O)c2c[nH]c3ccccc3c2=O)ccc1C(C)C [Compound 30]

>  <reported value>
++ (between 25% to 100%)

$$$$
>  <compound>
O=C(Nc1cccc(OC(F)(F)F)c1)c1c[nH]c2ccccc2c1=O [Compound 62]

>  <reported value>
++ (between 25% to 100%)

$$$$

----------
# experimental system: ΔF508-CFTR (Homo sapiens, UniProt P13569, DEL508-508)
# Construct: expressed in transfected cells
# test: Membrane potential optical (FRET/VIPR) assay, identification of potentiator compounds
# Type: cell-based
# assay context: Table 3; relative efficacy; assay not given
measured metric: % Activity

>  <molecule>
N#Cc1cccc(NC(=O)c2c[nH]c3ccccc3c2=O)c1

>  <reported value>
++ (between 25% to 100%)

$$$$
>  <molecule>
COc1ccccc1-c1ccccc1NC(=O)c1c[nH]c2ccccc2c1=O

>  <reported value>
++ (between 25% to 100%)

$$$$
>  <molecule>
CC(C)(C)c1ccc(O)cc1NC(=O)c1c[nH]c2ccc(F)cc2c1=O

>  <reported value>
++ (between 25% to 100%)

$$$$
>  <molecule>
CC(O)c1ccc(NC(=O)c2c[nH]c3ccccc3c2=O)cc1 (stereo not shown)

>  <reported value>
++ (between 25% to 100%)

$$$$
>  <molecule>
CSc1ccccc1-c1ccccc1NC(=O)c1c[nH]c2ccccc2c1=O

>  <reported value>
++ (between 25% to 100%)

$$$$
>  <molecule>
Cc1cc(C)c(NC(=O)c2c[nH]c3ccccc3c2=O)c(C)c1

>  <reported value>
++ (between 25% to 100%)

$$$$
>  <molecule>
CC1(c2ccc(NC(=O)c3c[nH]c4cccc(O)c4c3=O)cc2)COC1

>  <reported value>
++ (between 25% to 100%)

$$$$
>  <molecule>
COc1nc2ccccc2c(OC)c1C(=O)Nc1cc(NC(=O)OC(C)(C)C)ccc1C(C)(C)C

>  <reported value>
++ (between 25% to 100%)

$$$$
>  <molecule>
COc1ccc2[nH]cc(C(=O)Nc3ccc(N4[C@H](C)CC[C@H]4C)cc3C(F)(F)F)c(=O)c2c1

>  <reported value>
++ (between 25% to 100%)

$$$$
>  <molecule>
Cc1ccc2c(=O)c(C(=O)Nc3ccc(N4CCC[C@@H]4C)cc3C(F)(F)F)c[nH]c2c1

>  <reported value>
++ (between 25% to 100%)

$$$$
>  <molecule>
O=C(Nc1cccc2cc[nH]c12)c1c[nH]c2ccccc2c1=O

>  <reported value>
++ (between 25% to 100%)

$$$$
>  <molecule>
CCOc1ccc(NC(C)=O)cc1NC(=O)c1c[nH]c2ccccc2c1=O

>  <reported value>
+ (<25%)

$$$$
>  <molecule>
CC(C)c1ccc(NC(=O)c2c[nH]c3c(F)cccc3c2=O)c(C(F)(F)F)c1

>  <reported value>
++ (between 25% to 100%)

$$$$
>  <molecule>
Cc1ccc(NC(=O)c2c[nH]c3ccccc3c2=O)c(C)c1

>  <reported value>
++ (between 25% to 100%)

$$$$
>  <molecule>
CC(CO)(CO)c1ccc(NC(=O)c2c[nH]c3ccccc3c2=O)cc1

>  <reported value>
+ (<25%)

$$$$
>  <molecule>
O=C(Nc1ccc(Cl)nc1)c1c[nH]c2ccccc2c1=O

>  <reported value>
+ (<25%)

$$$$
>  <molecule>
O=C(Nc1ccc2c(c1)OCO2)c1c[nH]c2ccccc2c1=O

>  <reported value>
+ (<25%)

$$$$
>  <molecule>
Cc1cccc2[nH]cc(C(=O)Nc3cc4[nH]ccc4cc3C(C)(C)C)c(=O)c12

>  <reported value>
++ (between 25% to 100%)

$$$$
>  <molecule>
Cc1ccc2cccc(NC(=O)c3c[nH]c4ccccc4c3=O)c2n1

>  <reported value>
++ (between 25% to 100%)

$$$$
>  <molecule>
CCOc1ccc2[nH]cc(C(=O)Nc3cc(O)c(C(C)(C)C)cc3C(C)(C)C)c(=O)c2c1

>  <reported value>
++ (between 25% to 100%)

$$$$
>  <molecule>
Nc1cc(Cl)cc(NC(=O)c2c[nH]c3ccccc3c2=O)c1

>  <reported value>
++ (between 25% to 100%)

$$$$
>  <molecule>
Cn1cc(C(=O)Nc2ccccc2)c(=O)c2ccccc21

>  <reported value>
+ (<25%)

$$$$
>  <molecule>
CCCc1ccc(NC(=O)OC)cc1NC(=O)c1c[nH]c2ccccc2c1=O

>  <reported value>
++ (between 25% to 100%)

$$$$
>  <molecule>
CC(C)(C)c1cc(C(C)(C)C)c(NC(=O)c2c[nH]c3c(C(F)(F)F)cccc3c2=O)cc1O

>  <reported value>
+ (<25%)

$$$$
>  <molecule>
Cc1ccc2c(=O)c(C(=O)Nc3cc(O)c(C4(C)CCCCC4)cc3F)c[nH]c2c1

>  <reported value>
++ (between 25% to 100%)

$$$$
>  <molecule>
CC(C)(C)c1cc(NC(=O)c2c[nH]c3ccccc3c2=O)c(O)c(C(C)(C)C)c1

>  <reported value>
++ (between 25% to 100%)

$$$$
>  <molecule>
CC(C)(CNC(=O)OCC1CCOC1)c1ccc(NC(=O)c2c[nH]c3ccccc3c2=O)cc1 (stereo not shown)

>  <reported value>
++ (between 25% to 100%)

$$$$
>  <molecule>
Cn1ccc2ccc(NC(=O)c3c[nH]c4ccccc4c3=O)cc21

>  <reported value>
++ (between 25% to 100%)

$$$$
>  <molecule>
CC(C)(C)c1cc2cc[nH]c2cc1NC(=O)c1c[nH]c2c(C(F)(F)F)cccc2c1=O

>  <reported value>
+ (<25%)

$$$$
>  <molecule>
CC(C)(C)c1cc2cc[nH]c2cc1NC(=O)c1c[nH]c2cccc(O)c2c1=O

>  <reported value>
++ (between 25% to 100%)

$$$$
>  <molecule>
COc1ccccc1Oc1ccc(C(F)(F)F)cc1NC(=O)c1c[nH]c2ccccc2c1=O

>  <reported value>
++ (between 25% to 100%)

$$$$
>  <molecule>
CC(C)c1ccc(NC(=O)c2c[nH]c3ccccc3c2=O)cc1N(C)C

>  <reported value>
++ (between 25% to 100%)

$$$$
>  <molecule>
CCOC(=O)c1c(NC(=O)c2c[nH]c3ccccc3c2=O)ccc2cc[nH]c12

>  <reported value>
++ (between 25% to 100%)

$$$$
>  <molecule>
O=C(Nc1ccc(N2CCC(CO)CC2)cc1C(F)(F)F)c1c[nH]c2ccccc2c1=O

>  <reported value>
++ (between 25% to 100%)

$$$$
